Hey, just so you know, these numbers are from the supplement of paper PMC9233669.

Tested on: biotinyl-Phe-oxazolone
Assay: self-aminoacylation, catalytic enhancement (BFO) (fold over background); higher = more active; k-Seq, kA / k0A0; sequences stand for … in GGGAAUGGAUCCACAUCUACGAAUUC…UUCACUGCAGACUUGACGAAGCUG
Variants at the floor of the assay were thinned out.
MEASURE: self-aminoacylation
Quick one: just the number, no unit, thanks!

// field: self-aminoacylation; key: CUACGUCAUACAAUCGGUCUG [Fam1A.1 aminoacylation ribozyme variant] ; value = 1.1

// field: self-aminoacylation; key: AUCCAUCUAGGUCAUCGGGUG [Fam2.2 aminoacylation ribozyme variant] ; value = 29.6

// field: self-aminoacylation; key: AAGUUUGCUAAUAGUCGUAAG [Fam3.1 aminoacylation ribozyme variant] ; value = 33

// field: self-aminoacylation; key: AAGAUUGCAAAUAGUCGCAAG [Fam3.1 aminoacylation ribozyme variant] ; value = 1.38

// field: self-aminoacylation; key: CUACUUCUAACAAUCGGUCUG [Fam1A.1 aminoacylation ribozyme variant] ; value = 0.785

---

Test system: biotinyl-Val-oxazolone
Assay: self-aminoacylation, catalytic enhancement (BVO) (fold over background); higher = more active; k-Seq, kA / k0A0; sequences stand for … in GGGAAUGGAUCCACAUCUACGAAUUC…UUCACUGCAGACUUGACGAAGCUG
Variants at the floor of the assay were thinned out.
The reader will find reported self-aminoacylation values listed item by item below.
Quick one: just the number, no unit, thanks!

Examples from the recorded data:
[[record]]
record_sequence = "AAGUUUGCGAAUAGUCGAAAG [Fam3.1 aminoacylation ribozyme variant]"
measure = "self-aminoacylation"
endpoint_result = 0.733

[[record]]
record_sequence = "CCACACGUCAAGCAAUCAGUC [Fam1B.1 aminoacylation ribozyme variant]"
measure = "self-aminoacylation"
endpoint_result = 0.88

[[record]]
record_sequence = "AUAACCCUGGUCAUCGAGUGC [Fam2.1 aminoacylation ribozyme variant]"
measure = "self-aminoacylation"
endpoint_result = 1.42

[[record]]
record_sequence = "CCACACUUUAAGCAAUCGCUC [Fam1B.1 aminoacylation ribozyme variant]"
measure = "self-aminoacylation"
endpoint_result = 1.08

[[record]]
record_sequence = "CUAAUUCAAACCAUCGGUCUG [Fam1A.1 aminoacylation ribozyme variant]"
measure = "self-aminoacylation"
endpoint_result = 0.848

[[record]]
record_sequence = "AUUCGCGUAGGUCAUCGGGUG [Fam2.2 aminoacylation ribozyme variant]"
measure = "self-aminoacylation"
endpoint_result = 4.87

[[record]]
record_sequence = "AAGUUUGCUAACCGUCGCAAG [Fam3.1 aminoacylation ribozyme variant]"
measure = "self-aminoacylation"
endpoint_result = 0.754

[[record]]
record_sequence = "AUUCAUCUAUGUCAUCGGGUG [Fam2.2 aminoacylation ribozyme variant]"
measure = "self-aminoacylation"
endpoint_result = 3.8


// field: self-aminoacylation; key: CUAUUUCAAACAAUCGGUGUG [Fam1A.1 aminoacylation ribozyme variant] ; value = 0.83

// field: self-aminoacylation; key: AUUCACCUAGGUCCUUGGGUG [Fam2.2 aminoacylation ribozyme variant] ; value = 2.51

// field: self-aminoacylation; key: AUGACCCUGGUUAUCGAGUGA [Fam2.1 aminoacylation ribozyme variant] ; value = 3.36

---

Tested on: biotinyl-Trp-oxazolone
Test: self-aminoacylation, catalytic enhancement (BWO) (fold over background); higher = more active; k-Seq, kA / k0A0; sequences stand for … in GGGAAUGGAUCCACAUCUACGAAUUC…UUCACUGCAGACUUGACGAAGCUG
Fewer inactive variants are shown than the library holds.
Label scheme for self-aminoacylation: group A: < 1; group B: ≥ 1 and < 6; group C: ≥ 6

Before answering, review these 5 worked examples.
[[record]]
record_sequence = "CUAUUUCAUACAAUCGGUCUG [Fam1A.1 aminoacylation ribozyme variant]"
category_label = "group A"

[[record]]
record_sequence = "CCACUUCGAACAAUCGGUCUG [Fam1A.1 aminoacylation ribozyme variant]"
category_label = "group B"

[[record]]
record_sequence = "AUUACCCUGGUCAUCCAGUGG [Fam2.1 aminoacylation ribozyme variant]"
category_label = "group B"

[[record]]
record_sequence = "AAUCACCUAGGUCAUCGGGGG [Fam2.2 aminoacylation ribozyme variant]"
category_label = "group B"

[[record]]
record_sequence = "AUUCACGUAGGUCACCGGGUG [Fam2.2 aminoacylation ribozyme variant]"
category_label = "group C"


**Query** Which class is correct for the following sequence? GUUACCCUGAUCAUCGAGUGA [Fam2.1 aminoacylation ribozyme variant]
**Result** group C

**Query** Which class is correct for the following sequence? CUACUUCGAACGAUCGGUCUG [Fam1A.1 aminoacylation ribozyme variant]
**Result** group A

**Query** Which class is correct for the following sequence? AUUCACCUAGGUCACCGGGCG [Fam2.2 aminoacylation ribozyme variant]
**Result** group B

**Query** Which class is correct for the following sequence? AUUCACCUAGGUCCACGGGUG [Fam2.2 aminoacylation ribozyme variant]
**Result** group C

---

System: biotinyl-Val-oxazolone
Test: self-aminoacylation, catalytic enhancement (BVO) (fold over background); higher = more active; k-Seq, kA / k0A0; sequences stand for … in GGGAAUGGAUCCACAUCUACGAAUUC…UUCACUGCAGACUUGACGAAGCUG
This sample holds only a part of the variants without activity.
# binarize self-aminoacylation: threshold 1 inclusive, high side Yes, low side No

Before answering, review these 5 worked examples.
[[record]]
record_sequence = "CUACUUCAAACAACCGGUCUU [Fam1A.1 aminoacylation ribozyme variant]"
measured_target = "biotinyl-Val-oxazolone"
category_label = "No"

[[record]]
record_sequence = "AAGUUGGCUAAUAUUCGCAAG [Fam3.1 aminoacylation ribozyme variant]"
measured_target = "biotinyl-Val-oxazolone"
category_label = "Yes"

[[record]]
record_sequence = "AUUACCCAGGUUAUCGAGUGA [Fam2.1 aminoacylation ribozyme variant]"
measured_target = "biotinyl-Val-oxazolone"
category_label = "Yes"

[[record]]
record_sequence = "AUUCACCUAGGUCAUGGUGUG [Fam2.2 aminoacylation ribozyme variant]"
measured_target = "biotinyl-Val-oxazolone"
category_label = "No"

[[record]]
record_sequence = "AAGUUUGCUUAUAGUCGCCAG [Fam3.1 aminoacylation ribozyme variant]"
measured_target = "biotinyl-Val-oxazolone"
category_label = "No"


**Query** Decide: self-aminoacylation of GCACACUGCAAGCAAUCGGUC [Fam1B.1 aminoacylation ribozyme variant] >= 1?
**Result** Yes

**Query** Decide: self-aminoacylation of AUUACCCUGGUCAUAGAGAGA [Fam2.1 aminoacylation ribozyme variant] >= 1?
**Result** No

**Query** Decide: self-aminoacylation of AUUACCCUGGUCAUUGGGUGA [Fam2.1 aminoacylation ribozyme variant] >= 1?
**Result** Yes

**Query** Decide: self-aminoacylation of AUUCACCUGGGACAUCGGGUG [Fam2.2 aminoacylation ribozyme variant] >= 1?
**Result** Yes

**Query** Decide: self-aminoacylation of AAGUUUACUAGUAGUCGCAAG [Fam3.1 aminoacylation ribozyme variant] >= 1?
**Result** Yes

**Query** Decide: self-aminoacylation of AUUCACCGACGUCAUCGGGUG [Fam2.2 aminoacylation ribozyme variant] >= 1?
**Result** Yes

**Query** Decide: self-aminoacylation of UUUACCCUGUUCAUCGAGUGA [Fam2.1 aminoacylation ribozyme variant] >= 1?
**Result** Yes

**Query** Decide: self-aminoacylation of AUUCACCUAGGUCAUCGGUUG [Fam2.2 aminoacylation ribozyme variant] >= 1?
**Result** Yes

**Query** Decide: self-aminoacylation of CUACAUCAAACAAUCCGUCUG [Fam1A.1 aminoacylation ribozyme variant] >= 1?
**Result** No

**Query** Decide: self-aminoacylation of AAGAUUGCAAAUAGUCGCAAG [Fam3.1 aminoacylation ribozyme variant] >= 1?
**Result** Yes

---

The reader will find reported self-aminoacylation values listed item by item below.
Test system: biotinyl-Met-oxazolone
Experiment: self-aminoacylation, catalytic enhancement (BMO) (fold over background); higher = more active; k-Seq, kA / k0A0; sequences stand for … in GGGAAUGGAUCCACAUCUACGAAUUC…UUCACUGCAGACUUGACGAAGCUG
This sample holds only a part of the variants without activity.
Quick one: just the number, no unit, thanks!

Examples from the recorded data:
[[record]]
record_sequence = "AUUAGCCUGGUCAUCGUGUGA [Fam2.1 aminoacylation ribozyme variant]"
measured_target = "biotinyl-Met-oxazolone"
endpoint_result = 3.38

[[record]]
record_sequence = "AUUACCCUGGACUUCGAGUGA [Fam2.1 aminoacylation ribozyme variant]"
measured_target = "biotinyl-Met-oxazolone"
endpoint_result = 2.96

[[record]]
record_sequence = "CUACUCCAAACACUCGGUCUG [Fam1A.1 aminoacylation ribozyme variant]"
measured_target = "biotinyl-Met-oxazolone"
endpoint_result = 0.93

[[record]]
record_sequence = "AUUCACCUAGGACAUCGGGUC [Fam2.2 aminoacylation ribozyme variant]"
measured_target = "biotinyl-Met-oxazolone"
endpoint_result = 0.87


Next item in the queue.
// field: self-aminoacylation; key: AUUCACCUAGGACAUCGAGUG [Fam2.2 aminoacylation ribozyme variant] ; value = 1.52
